target: UniProt:P11712; experiment: Inhibitory activity against ccytochrome P450 2C9
Sequence (P11712 whole entry): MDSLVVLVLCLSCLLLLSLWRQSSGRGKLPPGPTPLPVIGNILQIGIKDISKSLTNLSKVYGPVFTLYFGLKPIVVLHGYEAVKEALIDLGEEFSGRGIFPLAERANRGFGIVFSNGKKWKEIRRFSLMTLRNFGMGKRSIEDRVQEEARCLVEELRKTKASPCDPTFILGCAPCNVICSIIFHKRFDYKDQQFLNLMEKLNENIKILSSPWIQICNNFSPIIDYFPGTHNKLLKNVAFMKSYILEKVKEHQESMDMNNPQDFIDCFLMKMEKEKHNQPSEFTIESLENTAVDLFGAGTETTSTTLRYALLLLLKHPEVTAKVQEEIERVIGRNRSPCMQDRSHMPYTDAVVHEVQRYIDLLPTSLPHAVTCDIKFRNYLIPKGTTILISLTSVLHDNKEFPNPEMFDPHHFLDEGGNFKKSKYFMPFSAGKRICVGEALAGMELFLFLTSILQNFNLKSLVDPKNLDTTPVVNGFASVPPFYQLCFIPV
QUANTITY: IC50 (µM)
Quick note: give the figure in µM, leave out the unit.

Req: Request: IC50, test system UniProt:P11712, entry CC(C)(C)c1ccc(S(=O)(=O)N2Cc3ccccc3N(Cc3c[nH]cn3)C(CCc3ccccc3)C2)cc1 (stereo unspecified)
Resp: 0.038

====

molecular target: UniProt:P11712; test: Inhibitory activity against cytochrome P450 2C9; format: ADME
QUANTITY: IC50 (nM)
Write the number in nM without appending the unit.

MOLECULE | RECORDED_MEASUREMENT
Cc1[nH]cnc1CN1c2ccccc2CN(S(=O)(=O)c2ccc(C(C)(C)C)cc2)CC1CCc1ccccc1 (configuration not stated) | 3000

With those in mind, consider the next molecule.
Req: Look up IC50 for this molecule: Cc1nc[nH]c1CN1c2ccccc2CN(S(=O)(=O)c2ccc(Cl)c(Cl)c2)CC1CCc1ccccc1 (configuration not stated)
Resp: 2000

====

biological target: Mitochondrial complex V; ATP synthase (Bos taurus, UniProt P00829+P05630+P05631+P05632); test: Inhibitory activity against bovine mitochondrial F1F0-ATP hydrolase; format: protein-complex assay
Sequence (P05632 whole entry): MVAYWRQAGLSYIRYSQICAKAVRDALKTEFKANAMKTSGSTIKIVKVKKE
Sequence (P00829 whole entry): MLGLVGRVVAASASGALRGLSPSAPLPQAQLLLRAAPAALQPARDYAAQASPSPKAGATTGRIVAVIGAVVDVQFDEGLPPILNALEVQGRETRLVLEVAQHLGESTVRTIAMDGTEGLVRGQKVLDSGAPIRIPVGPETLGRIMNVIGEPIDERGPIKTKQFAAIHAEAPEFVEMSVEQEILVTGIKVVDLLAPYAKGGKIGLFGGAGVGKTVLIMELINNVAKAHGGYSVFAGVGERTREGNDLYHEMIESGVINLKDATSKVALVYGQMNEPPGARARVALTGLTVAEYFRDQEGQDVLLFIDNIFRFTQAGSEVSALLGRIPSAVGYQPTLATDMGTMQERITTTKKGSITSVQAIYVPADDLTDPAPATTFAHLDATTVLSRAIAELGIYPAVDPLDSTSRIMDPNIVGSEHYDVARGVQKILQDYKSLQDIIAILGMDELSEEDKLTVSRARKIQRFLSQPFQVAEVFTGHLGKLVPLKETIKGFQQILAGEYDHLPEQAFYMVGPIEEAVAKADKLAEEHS
Sequence (P05631 whole entry): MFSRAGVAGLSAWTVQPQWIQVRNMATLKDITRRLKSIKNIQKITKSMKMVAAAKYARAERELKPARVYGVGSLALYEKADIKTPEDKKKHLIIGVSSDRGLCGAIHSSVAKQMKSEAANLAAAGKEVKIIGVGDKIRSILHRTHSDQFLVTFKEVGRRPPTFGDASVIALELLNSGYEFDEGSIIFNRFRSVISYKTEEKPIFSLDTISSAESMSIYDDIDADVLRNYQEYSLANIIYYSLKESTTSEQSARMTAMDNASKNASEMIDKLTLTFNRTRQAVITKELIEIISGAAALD
Sequence (P05630 whole entry): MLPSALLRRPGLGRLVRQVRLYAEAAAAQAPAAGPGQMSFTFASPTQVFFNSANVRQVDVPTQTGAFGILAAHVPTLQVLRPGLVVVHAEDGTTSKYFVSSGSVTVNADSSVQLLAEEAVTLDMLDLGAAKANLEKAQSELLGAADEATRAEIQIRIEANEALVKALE
# IC50 annotations
Please respond with the number in nM and leave the unit unwritten.

Worked cases, IC50 given:
COMPOUND | IC50 (nM)
O=[N+]([O-])c1cccc(S(=O)(=O)N2Cc3ccccc3N(Cc3cnc[nH]3)C(CCc3ccccc3)C2)c1 (stereo unspecified) | 423
CC(C)(C)c1ccc(CN2Cc3ccccc3N(Cc3cnc[nH]3)C(CCc3ccccc3)C2)cc1 (stereo unspecified) | 2140
Cc1nc[nH]c1CN1c2ccccc2CN(Cc2ccc(C(C)(C)C)cc2)CC1CCc1ccccc1 (stereo unspecified) | 2350
N#Cc1ccc(S(=O)(=O)N2Cc3ccccc3N(Cc3cnc[nH]3)C(CCc3ccccc3)C2)cc1 (stereo unspecified) | 255

Continue with the compound presented below.
Req: Give the measured IC50 of O=S(=O)(c1ccc(O)cc1)N1Cc2ccccc2N(Cc2cnc[nH]2)C(CCc2ccccc2)C1 (stereo unspecified) .
Resp: 667

====

biological target: Mitochondrial complex V; ATP synthase (Bos taurus, UniProt P00829+P05630+P05631+P05632); assay: Inhibitory activity against bovine mitochondrial F1F0-ATP hydrolase; format: protein-complex assay
QUANTITY: log10 of IC50 (log10 of the value in nM)
Base-10 log of IC50, unit nM.

Solved entries:
COMPOUND | log10 of IC50
O=S(=O)(c1ccc(F)cc1)N1Cc2ccccc2N(Cc2c[nH]cn2)C(CCc2ccccc2)C1 (stereo not drawn) | 2.34
O=S(=O)(c1ccccc1)N1Cc2ccccc2N(Cc2cnc[nH]2)C(CCc2ccccc2)C1 (stereo not drawn) | 2.45
O=S(=O)(c1cc(Cl)ccc1Cl)N1Cc2ccccc2N(Cc2cnc[nH]2)C(CCc2ccccc2)C1 (stereo not drawn) | 2.20

Req: Value lookup for log10 of IC50; key = CC(C)(C)c1ccc(S(=O)(=O)N2Cc3ccccc3N(Cc3c[nH]cn3)C(CCc3ccccc3)C2)cc1 (stereo not drawn)
Resp: 0.90

Req: Same question for O=S(=O)(c1cccc2nonc12)N1Cc2ccccc2N(Cc2cnc[nH]2)C(CCc2ccccc2)C1 (stereo not drawn) please.
Resp: 3.25

Req: Field entry: N#Cc1ccc(S(=O)(=O)N2Cc3ccccc3N(Cc3c[nH]cn3)C(CCc3ccccc3)C2)c(Cl)c1 (stereo not drawn)
Resp: 2.97

Req: Would you kindly repeat that for O=S(=O)(c1cccc2ccccc12)N1Cc2ccccc2N(Cc2cnc[nH]2)C(CCc2ccccc2)C1 (stereo not drawn) ?
Resp: 2.53

Req: Continue with O=S(=O)(c1cccc2cccnc12)N1Cc2ccccc2N(Cc2c[nH]cn2)C(CCc2ccccc2)C1 (stereo not drawn)
Resp: 3.47

====

IC50 for assorted compounds
target: Mitochondrial complex V; ATP synthase (Bos taurus, UniProt P00829+P05630+P05631+P05632); test: Inhibitory activity against bovine mitochondrial F1F0-ATP hydrolase; assay type: protein-complex assay
Supply the numeric figure in µM, leaving out any unit text.

Answered examples (3):
COMPOUND | QUANTITY_UNIT | RECORDED_MEASUREMENT
O=S(=O)(c1cccs1)N1Cc2ccccc2N(Cc2cnc[nH]2)C(CCc2ccccc2)C1 (centres undefined) | µM | 0.636
CC(=O)Nc1ccc(S(=O)(=O)N2Cc3ccccc3N(Cc3cnc[nH]3)C(CCc3ccccc3)C2)cc1 (centres undefined) | µM | 2.98
Cc1nc(CN2c3ccccc3CN(S(=O)(=O)c3ccc(F)cc3)CC2CCc2ccccc2)c[nH]1 (centres undefined) | µM | 9.62

Req: Notebook entry, Mitochondrial complex V; ATP synthase (Bos taurus, UniProt P00829+P05630+P05631+P05632) assay: IC50 of Cc1nc[nH]c1CN1c2ccccc2CN(S(=O)(=O)c2ccc(Cl)c(Cl)c2)CC1CCc1ccccc1 (centres undefined) = ?
Resp: 0.022

Req: What about COc1ccc(S(=O)(=O)N2Cc3ccccc3N(Cc3c[nH]cn3)C(CCc3ccccc3)C2)cc1 (centres undefined) ?
Resp: 0.077

Req: Now the compound O=S(=O)(N1Cc2ccccc2N(Cc2c[nH]cn2)C(CCc2ccccc2)C1)C(F)(F)F (centres undefined)
Resp: 0.077

====

biological target: Mitochondrial complex V; ATP synthase (Bos taurus, UniProt P00829+P05630+P05631+P05632); experiment: Inhibitory activity against bovine mitochondrial F1F0-ATP hydrolase; assay type: protein-complex assay
molecules and their reported IC50
# unit: nM | format: bare number

MOLECULE | EXPERIMENTAL_SYSTEM | QUANTITY_UNIT | IC50
O=S(=O)(Cc1ccccc1)N1Cc2ccccc2N(Cc2c[nH]cn2)C(CCc2ccccc2)C1 (stereo not drawn) | Mitochondrial complex V; ATP synthase (Bos taurus, UniProt P00829+P05630+P05631+P05632) | nM | 2410

Req: I have this molecule here, Cc1nc[nH]c1CN1c2ccccc2CN(S(=O)(=O)c2ccc(F)cc2)CC1CCc1ccccc1 (stereo not drawn) , and I need its recorded IC50.
Resp: 151

Req: Next molecule up: Cc1[nH]cnc1CN1c2ccccc2CN(S(=O)(=O)c2ccc(C(C)(C)C)cc2)CC1CCc1ccccc1 (stereo not drawn)
Resp: 77
